Experiment: Growth inhibition of human RXF393 cells at 10 uM after 48 hrs by SRB assay relative to control
Assay type: functional
Conditions: RXF 393, 48 h, read-out: GI
inhibition of growth at 10 µM for assorted compounds
Give the quantity in %, number only.

COc1ccc(-n2c(SCc3cc(OC)c(OC)c(OC)c3)nc3ccc(C)cc3c2=O)c(OC)c1    80.4
COc1cc(CSc2nc3ccc(Cl)cc3c(=O)n2-c2ccccc2)cc(OC)c1OC    31.1
COc1ccc(-n2c(SCc3cc(OC)c(OC)c(OC)c3)nc3ccc(Cl)cc3c2=O)cc1    25.9

INPUT: Item under review: COc1ccccc1-n1c(SCc2cc(OC)c(OC)c(OC)c2)nc2ccc(Cl)cc2c1=O . Reported inhibition of growth at 10 µM?
OUTPUT: 38.5

INPUT: Form field: reported inhibition of growth at 10 µM of COc1cc2nc(SCc3cc(OC)c(OC)c(OC)c3)n(-c3ccccc3OC)c(=O)c2cc1OC
OUTPUT: 22
